The measured values listed here are drawn from the supplement of paper PMC11616607.

- System: HOSE1C
- test.method.notes: drug sensitivity score (DSS) from 5-point dose-response viability curve (DSS (area-under-curve based score)); higher = more sensitive (stronger growth inhibition or killing); extreme values may be limits of the assay
- particulars: exposure time: 72 h; concentration range: 5 concentrations over 10,000-fold range
endpoint.label: drug sensitivity score
Answers are plain numbers.

Record excerpt, results attached:
structure.string	measured
CC(=O)O[C@H]1C(=O)[C@@]2(C)[C@H]([C@H](OC(=O)c3ccccc3)[C@]3(O)C[C@H](OC(=O)[C@H](O)[C@@H](NC(=O)c4ccccc4)c4ccccc4)C(C)=C1C3(C)C)[C@]1(OC(C)=O)CO[C@@H]1C[C@@H]2O	25.1
Nc1cc(F)ccc1NC(=O)/C=C/c1cnn(C/C=C/c2ccccc2)c1	1.1
CCCN(CCC)C(=O)C1=Cc2ccc(-c3ccc(C(=O)N4CCCC4)cc3)cc2N=C(N)C1	0
Cn1c(Nc2ccc(C(F)(F)F)cc2)nc2cc(Oc3ccnc(-c4ncc(C(F)(F)F)[nH]4)c3)ccc21	6.9
Cc1noc2c1-c1ccccc1C(c1ccc(Cl)cc1)=N[C@H]2CC(N)=O	9.3
C=CC(=O)Nc1cc(Nc2nccc(-c3cn(C)c4ccccc34)n2)c(OC)cc1N(C)CCN(C)C	4.7

Let's switch to this molecule now.
Request: Which drug sensitivity score is reported for this molecule? `CC(=O)Nc1cccc(-n2c(=O)n(C3CC3)c(=O)c3c(Nc4ccc(I)cc4F)n(C)c(=O)c(C)c32)c1`
Response: 0
